# TARGET OR TEST SYSTEM: human GLP-1 receptor (human, UniProt P43220 24-463)
# PROTOCOL DESCRIPTION: cell-based or functional assay
*1 amine or outer side, *2 acyl side, *3 side chain or, on linkers, in order; H or OH if unused. Where no end group is shown, it is not given here. Side-chain parts run from the residue outwards. [ ]: non-standard residue; d: D form. The star is where a group is joined. Decanoyl(10-(4-HOOC-PhO)) = O=C(O)c1ccc(OCCCCCCCCCC(=O)*)cc1; αMePhe(2-F) = C[C@](N)(Cc1ccccc1F)C(=O)O; γGlu = O=C(O)[C@H](CCC(=O)[*:2])N[*:1]; αMeY = C[C@](N)(Cc1ccc(O)cc1)C(=O)O; αMeL = CC(C)C[C@](C)(N)C(=O)O; Nle = CCCC[C@H](N)C(=O)O; Orn = NCCC[C@H](N)C(=O)O; AEEA = NCCOCCOCC(=O)O; Aib = CC(C)(N)C(=O)O
Below, each of the binders is paired with its reported cAMP EC50 value.
Note: unit pM is implicit; provide only the numeric part.

Example results:
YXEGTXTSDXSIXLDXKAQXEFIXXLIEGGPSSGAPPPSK (Aib2, αMeF(2F)6, OMeY10, αMeL13, Orn16, Aib20, D-Glu24, αMeY25; K17 and K40: AEEA2-(γ-Glu)-CO-(CH2)10-CH3; C-terminal NH2) [Example 291]    207
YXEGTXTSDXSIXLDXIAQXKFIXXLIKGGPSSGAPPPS (Aib2, αMeF(2F)6, hTyr10, αMeL13, Orn16, Aib20, D-Glu24, αMeY25; K21 and K28: AEEA2-(γ-Glu)-(10-(4-carboxyphenoxy)decanoyl); C-terminal NH2) [Example 332]    263
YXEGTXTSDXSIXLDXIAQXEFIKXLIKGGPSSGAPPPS (Aib2, αMeF(2F)6, hTyr10, αMeL13, Orn16, Aib20, αMeY25; K24 and K28: AEEA2-(γ-Glu)-(10-(4-carboxyphenoxy)decanoyl); C-terminal NH2) [Example 310]    347
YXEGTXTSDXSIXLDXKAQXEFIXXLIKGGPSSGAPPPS (Aib2, αMeF(2F)6, hTyr10, αMeL13, Orn16, Aib20, D-Glu24, αMeY25; K17 and K28: AEEA2-(γ-Glu)-CO-(CH2)10-CH3; C-terminal NH2) [Example 335]    175
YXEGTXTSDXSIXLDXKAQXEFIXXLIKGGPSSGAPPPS (Aib2, αMeF(2F)6, Nle10, αMeL13, Orn16, Aib20, D-Glu24, αMeY25; K17 and K28: AEEA2-(γ-Glu)-(10-(4-carboxyphenoxy)decanoyl); C-terminal NH2) [Example 328]    405

What value of cAMP EC50 has been recorded for this entry: Y[Aib]EGT[αMePhe(2-F)]TSD[Nle]SI[αMeL]LD[Orn]IAQ[Aib]EFIK([AEEA-AEEA-γGlu-Decanoyl(10-(4-HOOC-PhO))])[αMeY]LIK([AEEA-AEEA-γGlu-Decanoyl(10-(4-HOOC-PhO))])GGPSSGAPPPS-NH2 [Example 314]
673

Also check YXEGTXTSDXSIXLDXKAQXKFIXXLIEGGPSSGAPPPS (Aib2, αMeF(2F)6, Nle10, αMeL13, Orn16, Aib20, D-Glu24, αMeY25; K17 and K21: AEEA2-(γ-Glu)-(10-(4-carboxyphenoxy)decanoyl); C-terminal NH2) [Example 321]
295
